// pKi collected for P2X7 (Homo sapiens (Human), UniProt Q99572)
Numbers only, as −log10 of the molar value.

[[record]]
input_smiles = "Cc1nc(-c2ccnn2C)c2c(n1)[C@H]1CCC[C@@H](C2)N1C(=O)c1ccc(Cl)c(F)c1Cl"
quantitative_readout = 7.03

[[record]]
input_smiles = "Cc1nc(-c2ccnn2C)c2c(n1)[C@H]1CCC[C@@H](C2)N1C(=O)c1cccc(C(F)(F)F)c1C"
quantitative_readout = 6.72

[[record]]
input_smiles = "Cc1nc(-c2cnccn2)c2c(n1)[C@H]1CCC[C@@H](C2)N1C(=O)c1cccc(C(F)(F)F)c1C"
quantitative_readout = 7.03

[[record]]
input_smiles = "Cc1nc(-c2ccnn2C)c2c(n1)[C@H]1CCC[C@@H](C2)N1C(=O)c1cccc(Cl)c1Cl"
quantitative_readout = 6.87

[[record]]
input_smiles = "Cc1nc(-c2ccccn2)c2c(n1)[C@H]1CCC[C@@H](C2)N1C(=O)c1cccc(C(F)(F)F)c1Cl"
quantitative_readout = 7.40

[[record]]
input_smiles = "Cc1nc(-c2ncccn2)c2c(n1)[C@H]1CCC[C@@H](C2)N1C(=O)c1cccc(Cl)c1Cl"
quantitative_readout = 7.60


// below: pKi requested for another compound
// fetch pKi; item: Cc1nc(-c2ccn[nH]2)c2c(n1)[C@@H]1CCC[C@H](C2)N1C(=O)c1cccc(Cl)c1Cl ; system: P2X7 (Homo sapiens (Human), UniProt Q99572)
Sequence (Q99572 whole entry): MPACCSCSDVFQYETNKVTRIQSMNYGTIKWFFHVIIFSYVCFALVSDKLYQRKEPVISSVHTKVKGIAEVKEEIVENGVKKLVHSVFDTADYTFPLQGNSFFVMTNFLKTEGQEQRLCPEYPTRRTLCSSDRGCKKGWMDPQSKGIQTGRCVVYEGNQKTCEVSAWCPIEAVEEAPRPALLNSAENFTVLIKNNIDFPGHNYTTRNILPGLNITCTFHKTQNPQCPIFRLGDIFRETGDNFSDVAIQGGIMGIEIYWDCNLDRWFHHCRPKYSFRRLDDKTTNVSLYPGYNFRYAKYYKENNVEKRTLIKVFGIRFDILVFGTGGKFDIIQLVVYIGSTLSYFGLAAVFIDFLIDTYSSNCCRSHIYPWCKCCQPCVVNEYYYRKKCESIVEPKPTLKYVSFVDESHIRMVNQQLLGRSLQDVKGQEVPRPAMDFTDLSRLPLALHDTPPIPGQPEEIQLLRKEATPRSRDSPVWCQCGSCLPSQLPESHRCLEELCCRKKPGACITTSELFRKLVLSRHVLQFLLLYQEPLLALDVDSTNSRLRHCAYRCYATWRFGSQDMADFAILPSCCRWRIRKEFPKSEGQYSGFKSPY
6.30
